Kindly state PBM binding z-score for each of the entries shown.
system: PPARg:RXRa 30nM:10nM, anti-RXR (NR concentration 30 nM, RXRa partner concentration 10 nM); assay: PBM binding z-score (relative to random genomic background probes); higher = stronger binding; sequences stand for … in GC…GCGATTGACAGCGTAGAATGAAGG

CATACAGGGTCAGATAGGCCAGAGTAGGGACGGC; 0.58

Dear reader, for each entry below, please note its PBM binding z-score.
1. ACTTACGGGACAACGAGGTTATAGCACGCGTATA
2. CAAACTAGGTCAAGAGGTTAAAGTCCGCTTCCCG
3. TCATATAAGTAATACAGGTGAAAGTCGGCATCTA
4. CCTAGCAGGCCAAGGTCACTCAAGCATTTCGCTT
5. GCTTACGGGTCAAAGGTTGTAGCATGAATAGAAT
6. TCTCGGATGACACGAAGGTCAGAGCTTTCCAGAG
7. CAAACTAGGTGAAGAGGTCAAAGTCCGCTTCCCG

Data returned:
1: 0.295; 2: 5.14; 3: 4.28; 4: -0.0507; 5: 7.45; 6: 2.77; 7: 5.27

Dear reader, for each entry below, please note its PBM binding z-score.
1. AGTCAAAGTTCAGGACGAGTTAACGTAAAGCACG
2. CCTCGGAGGACAACAGGAGGGCAGAGCTGCCAGA
3. AATACAGGGTCATCATAGGCCAGAGTACGCACAG
4. TGTCAAAGTTCAAAGGTAGCGTAAGTATCCACAC

Data returned:
1: 2.21; 2: -1.32; 3: 2.51; 4: 4.48
